# Protocol Notes: probe aCHRDL2 binding to arrayed compounds – biochemical, biotinylated probe, 635/667 nm fluorescence, primary screen (AID 1100)
# Conditions Used: small-molecule microarray, higher = more signal

Compound	composite z-score
NC(=O)N1C(=O)C2C(C1=O)C1C=C(CCCO)C2C(C2CC2)N1Cc1cc2c(cc1Br)OCO2 (stereo unspecified)	0.32
C[N+](C)(C)CCCC[C@@H]1NC(=O)[C@@H]2C[C@H](C(=O)NCCCCCN)[C@H](c3ccc(O)cc3)N2C1=O	0.808
COc1cc2c(cc1OC)CN(C(=O)[C@H]1[C@@H]3C(=O)O[C@@H](c4ccccc4)[C@@H](c4ccccc4)N3[C@@H](c3ccccc3OCCO)[C@]13C(=O)Nc1ccc(C#CCCO)cc13)CC2	-0.294
O=C(O)[C@H]1C[C@H]2C(=O)N3CCC[C@H]3C(=O)N2[C@H]1c1ccc(O)cc1	0.915
COCCOC(=O)N1C(=O)[C@@]2(c3ccccc31)[C@H](C(=O)N1CCCCCCC1)[C@H]1C(=O)O[C@H](c3ccccc3)[C@H](c3ccccc3)N1[C@@H]2c1ccc(OCCO)cc1	1.76
CC(C)CNC(=O)[C@@]1(Cc2ccccc2I)c2ccccc2C(=O)N(Cc2ccccc2C(F)(F)F)[C@H]1c1ccc(CO)cc1	0.836

---

Listed next: entries and their corresponding z-score.
# Protocol Notes: optical density shifts of acrAB sulA E. coli – strain DRC41, OD650, 48 h, E. coli filamentation inducer project, primary screen (AID 1152);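 also: E. coli MC1000 strain DRC41 lacking acrAB efflux pump and sulA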
# Conditions Used: higher = more signal, called active from +8 up or from −8 down

Compound Structure String	z-score
C=C(C(=O)CC[C@H](OC(C)=O)c1ccccc1OCCO)C(C)C	0.0974
C=CC[C@]1(C(N)=O)N=C(c2ccc(OCCCO)cc2)O[C@H]1c1ccccc1	-0.0378
COC(=O)[C@@]1(Cc2ccc(F)cc2)[C@H]2c3cc(C(=O)N(C)C)n(Cc4cc(C)n(C)n4)c3C[C@H]2CN1C(=O)c1ccccc1	-1.48
COC(=O)[C@@]1(Cc2ccc(OC)cc2)[C@H]2c3cc(C(=O)N4CCCC4)n(Cc4nc5ccccc5[nH]4)c3C[C@H]2CN1C(=O)c1ccccc1	-0.945

---

Overview of reported composite z-score across a group of compounds:
# System: Pro-neuregulin-1, membrane-bound isoform (Homo sapiens)
# Protocol Notes: small molecules binding neuregulin-1 protein – biochemical, small-molecule microarray, fluorescence 635/667, psychiatric disease protein project, primary screen (AID 1075);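 also: score combines 667 nm spot fluorescence with signal to noise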
# Conditions Used: NRG1 binding, 635 nm fluorescence, higher = more signal

Compound	System	composite z-score
COCC(=C=CC[C@@H](O)c1ccc(OCCO)cc1)C[C@@H](O)c1ccccn1	Pro-neuregulin-1, membrane-bound isoform (Homo sapiens)	1
O=C(CS)NCCCCCNC(=O)[C@@H]1C[C@@H]2C(=O)NCC(=O)N2[C@@H]1c1ccc(O)cc1	Pro-neuregulin-1, membrane-bound isoform (Homo sapiens)	0.317
CCOc1cc(C(O)C2C=CC3C(=O)N(c4ccccc4)C(=O)C3N2Nc2ccc(C(C)C)cc2)ccc1O (stereo not given)	Pro-neuregulin-1, membrane-bound isoform (Homo sapiens)	1.36
O=C1C2C=CC(C(O)c3ccc(F)cc3)N(Nc3ccc([N+](=O)[O-])cc3)C2C(=O)N1c1ccccc1 (stereo not given)	Pro-neuregulin-1, membrane-bound isoform (Homo sapiens)	2
COC(=O)c1c(CC[C@@H](CO)NC(=O)N[C@H](Cc2ccccc2)Cn2cc(-c3ccccn3)nn2)oc(C(C)=O)c1C(=O)OC	Pro-neuregulin-1, membrane-bound isoform (Homo sapiens)	0.813
